# target-of-assay: Virion infectivity factor (Human immunodeficiency virus type 1 group M subtype B (isolate BH10)) + Virion infectivity factor (Human immunodeficiency virus type 1 group M subtype B (isolate BRU/LAI)) + Virion infectivity factor (Human immunodeficiency virus type 1 group M subtype B (isolate PCV12)) + Virion infectivity factor (Human immunodeficiency virus type 1 group M subtype B (isolate HXB2)) + DNA dC->dU-editing enzyme APOBEC-3G (Homo sapiens) (UniProt P69720+P69721+P69722+P69723+Q9HC16)
# test-method-notes: HIV-1 Vif–A3G interaction blockers – biochemical, TR-FRET, GST-Vif 1-94, biotin-A3G peptide, dose response retest, primary screen (AID 1117319);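 note: Vif residues 1-94 fused to GST binding biotinylated APOBEC3G peptide 110-148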
# experimental-context: TR-FRET GST-Vif / biotin-A3G peptide binding
Records with an inconclusive call do not appear.
Below, each of the molecules is paired with its reported IC50 value.

Examples with answers:
* CCOC(=O)N1CCN(C(=O)c2ccc3c(SCC(=O)O)c4c(nc3c2)CCC4)CC1 | 1.9 µM
* c1coc(-c2nc3ccccc3nc2-c2ccco2)c1 | 1.39 µM
* COC(=O)C1C(O)C(C)C(O)C(C)(O)/C=C\C=C(/C)C(=O)Nc2c(C)c(OC(C)=O)c3c(c2O)C(=O)C(C)=C2OCOC(=C23)/C(C)=C/C(C)(O)C(O)C(C)C1O (centres undefined) | 13.6 µM

May I ask what IC50 has been recorded for CCn1c2ccccc2c2cc(NC(=O)c3ccccc3[N+](=O)[O-])ccc21 ?
14.7 µM

Follow-up entry: Cc1cc2c(c(=O)o1)C(c1ccc([N+](=O)[O-])o1)C(C#N)=C(N)O2 (centres undefined)
2.53 µM

Follow-up entry: CNc1ccccc(C(=O)/C=C/c2ccccc2OC)c1=O
3.9 µM

Follow-up entry: COc1ccc(/C=N/NC(=O)CNc2n[nH]c(=O)[nH]c2=O)cc1OC
42.6 µM

Follow-up entry: Cc1ccccc1NS(=O)(=O)c1ccc2[nH]cc(C(=O)N(C)Cc3ccco3)c(=O)c2c1
56.8 µM

* * *

# target-of-assay: Virion infectivity factor (Human immunodeficiency virus type 1 group M subtype B (isolate BH10)) + Virion infectivity factor (Human immunodeficiency virus type 1 group M subtype B (isolate BRU/LAI)) + Virion infectivity factor (Human immunodeficiency virus type 1 group M subtype B (isolate PCV12)) + Virion infectivity factor (Human immunodeficiency virus type 1 group M subtype B (isolate HXB2)) + DNA dC->dU-editing enzyme APOBEC-3G (Homo sapiens) (UniProt P69720+P69721+P69722+P69723+Q9HC16)
# test-method-notes: HIV-1 Vif–A3G interaction blockers – biochemical, TR-FRET, GST-Vif 1-94, biotin-A3G peptide, dose response retest, primary screen (AID 1117319);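 note: Vif residues 1-94 fused to GST binding biotinylated APOBEC3G peptide 110-148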
# experimental-context: TR-FRET GST-Vif / biotin-A3G peptide binding
Results filed as inconclusive are left out.
recorded-metric: pIC50
Quick note: pIC50 values are minus log10 of concentrations in mol/L.

Examples with answers:
- COc1cc(CN2CCNC(=O)C2CC(=O)N(Cc2nccn2C)C(C)C)cc(OC)c1 (stereo not given): 4.55
- Cc1cc(-c2csc(NC(=O)c3cc4ccccc4o3)n2)c(C)n1C: 4.31
- NCCc1c[nH]c2ccccc12: 5.78
- COc1ccc(-c2nc3oc4cc(OC)ccc4c(=O)c3c(=O)n2Cc2ccco2)cc1: 4.01
- CN(C)c1ccc(N2C(=O)CSC2=S)cc1: 5.08
- O=C1CC(c2ccco2)CC(O)=C1C=Nc1cc(Cl)ccc1O (stereo not given): 5.35

May I ask what pIC50 has been recorded for Cc1ccc(N(CC(=O)NCCSCc2ccco2)S(=O)(=O)c2ccc(F)cc2)cc1 ?
4.96

Follow-up entry: O=C(Nc1ccccc1-c1nnn(CC(=O)N2CCc3ccccc3C2)n1)C1CCC1
4.04

Follow-up entry: CCOC(=O)Cc1cc(=O)n2[nH]c(C)cc2n1
4.12

Follow-up entry: Cc1nc2ccccc2n2c(O)c(CC(=O)O)cc12
4.52
